Source listed as paper PMC9516332.

Target: panel of 255 wild-type kinases (Homo sapiens, UniProt P07332)
Sequence (P07332 whole entry): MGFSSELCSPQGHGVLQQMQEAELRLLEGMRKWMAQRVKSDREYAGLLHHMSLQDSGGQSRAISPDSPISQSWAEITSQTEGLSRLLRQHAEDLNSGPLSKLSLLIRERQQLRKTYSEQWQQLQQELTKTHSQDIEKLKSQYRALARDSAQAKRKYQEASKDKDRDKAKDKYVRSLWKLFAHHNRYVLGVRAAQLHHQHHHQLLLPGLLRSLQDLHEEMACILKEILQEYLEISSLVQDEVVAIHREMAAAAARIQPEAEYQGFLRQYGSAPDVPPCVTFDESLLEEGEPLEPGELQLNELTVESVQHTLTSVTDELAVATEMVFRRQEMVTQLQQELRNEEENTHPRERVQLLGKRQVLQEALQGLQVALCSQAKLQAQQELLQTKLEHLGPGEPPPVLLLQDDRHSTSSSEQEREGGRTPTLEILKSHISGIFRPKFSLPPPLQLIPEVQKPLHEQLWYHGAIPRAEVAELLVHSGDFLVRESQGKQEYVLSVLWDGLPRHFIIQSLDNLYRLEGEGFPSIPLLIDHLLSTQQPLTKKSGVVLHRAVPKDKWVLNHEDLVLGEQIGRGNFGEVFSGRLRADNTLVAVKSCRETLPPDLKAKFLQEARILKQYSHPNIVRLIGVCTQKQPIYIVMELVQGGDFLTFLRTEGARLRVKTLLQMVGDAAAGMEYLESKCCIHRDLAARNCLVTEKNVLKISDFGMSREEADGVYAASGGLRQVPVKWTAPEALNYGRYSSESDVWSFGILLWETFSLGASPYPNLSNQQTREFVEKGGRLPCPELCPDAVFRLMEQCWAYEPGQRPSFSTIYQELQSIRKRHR
Assay: Kinase panel profiling at 1 µmol/L (MSA or IMAP), percentage inhibition
Assay type: biochemical
Conditions: kinase FES; 1 µmol/L single concentration; read-out: %-inhibition at 1 µmol/L, FES
Use 20% as the dividing line for inhibition at 1 µM, with the line itself on the True side and lower values as False.

Worked examples follow.
CN1CCN(c2ccc(C(=O)Nc3n[nH]c4ccc(Cc5cc(F)cc(F)c5)cc34)c(NC3CCOCC3)c2)CC1 [entrectinib] = True
O=C(Nc1cnn2ccc(N3CCC[C@@H]3c3cc(F)ccc3F)nc12)N1CC[C@H](O)C1 [larotrectinib] = False
COc1ccc(CN2C3CC2CN(c2ccc(-c4cc(OCC(C)(C)O)cn5ncc(C#N)c45)cn2)C3)cn1 [selpercatinib] = False
CCn1c(=O)c(-c2cc(NC(=O)Nc3ccccc3)c(F)cc2Br)cc2cnc(NC)cc21 [ripretinib] = True
CCc1nc(C(N)=O)c(Nc2ccc(N3CCC(N4CCN(C)CC4)CC3)c(OC)c2)nc1NC1CCOCC1 [gilteritinib] = True

Is the recorded value of inhibition at 1 µM equal to or greater than 20% for this compound? Cc1nc(NC(=O)N2CCC[C@H]2C(N)=O)sc1-c1ccnc(C(C)(C)C(F)(F)F)c1 [alpelisib]
False

====

Biological target: panel of 255 wild-type kinases (Homo sapiens, UniProt P49760)
Sequence (P49760 whole entry): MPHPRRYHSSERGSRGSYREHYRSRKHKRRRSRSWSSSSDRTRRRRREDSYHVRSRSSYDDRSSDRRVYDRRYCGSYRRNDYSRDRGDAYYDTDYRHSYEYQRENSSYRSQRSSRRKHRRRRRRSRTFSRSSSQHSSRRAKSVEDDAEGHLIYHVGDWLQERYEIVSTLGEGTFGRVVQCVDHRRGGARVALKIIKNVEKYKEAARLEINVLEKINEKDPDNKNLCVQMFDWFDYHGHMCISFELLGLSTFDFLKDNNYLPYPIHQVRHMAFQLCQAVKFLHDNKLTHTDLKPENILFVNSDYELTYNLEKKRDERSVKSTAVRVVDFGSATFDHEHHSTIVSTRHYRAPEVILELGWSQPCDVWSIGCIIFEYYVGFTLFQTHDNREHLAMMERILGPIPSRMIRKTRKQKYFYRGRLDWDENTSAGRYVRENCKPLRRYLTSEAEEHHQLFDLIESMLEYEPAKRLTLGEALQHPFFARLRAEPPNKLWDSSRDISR
Test: Kinase panel profiling at 1 µmol/L (MSA or IMAP), percentage inhibition
Format: biochemical
Details: kinase CLK2; 1 µmol/L single concentration; read-out: %-inhibition at 1 µmol/L, CLK2
experimentalReadout: inhibition at 1 µM

Cn1cc(-c2cc3c(N4CCN(c5ncc([C@@](C)(N)c6ccc(F)cc6)cn5)CC4)ncnn3c2)cn1 = 11%
CN1CCN(c2ccc(C(=O)Nc3n[nH]c4ccc(Cc5cc(F)cc(F)c5)cc34)c(NC3CCOCC3)c2)CC1 = 28%
Cc1cc(Nc2ncnc3ccc(NC4=NC(C)(C)CO4)cc23)ccc1Oc1ccn2ncnc2c1 = 5%
CO[C@]1(C(=O)N[C@@H](C)c2ccc(-n3cc(F)cn3)nc2)CC[C@H](c2nc(C)cc(Nc3cc(C)[nH]n3)n2)CC1 = 9.51%
C=CC(=O)N1CCC([C@@H]2CCNc3c(C(N)=O)c(-c4ccc(Oc5ccccc5)cc4)nn32)CC1 = 7.62%
CCN1C(=O)N(c2c(F)c(OC)cc(OC)c2F)Cc2cnc3[nH]c(CN4CCOCC4)cc3c21 = 6.37%
C[C@H](Nc1ncnc2nc[nH]c12)c1cc2cccc(Cl)c2c(=O)n1-c1ccccc1 = 3.58%
CCc1nc(C(N)=O)c(Nc2ccc(N3CCC(N4CCN(C)CC4)CC3)c(OC)c2)nc1NC1CCOCC1 = 39%
C[C@H]1Oc2cc(cnc2N)-c2c(nn(C)c2C#N)CN(C)C(=O)c2ccc(F)cc21 = 2.49%
CCn1c(=O)c(-c2cc(NC(=O)Nc3ccccc3)c(F)cc2Br)cc2cnc(NC)cc21 = -4%

Please look at the items below and tell me inhibition at 1 µM for each one, in order.
1. Cc1nc(NC(=O)N2CCC[C@H]2C(N)=O)sc1-c1ccnc(C(C)(C)C(F)(F)F)c1
2. COc1cc2ncnc(Nc3ccc(F)c(Cl)c3)c2cc1NC(=O)/C=C/CN1CCCCC1
3. COc1ccc(CN2C3CC2CN(c2ccc(-c4cc(OCC(C)(C)O)cn5ncc(C#N)c45)cn2)C3)cn1

1. 85%
2. -0.6%
3. -2.3%

Please look at the items below and tell me inhibition at 1 µM for each one, in order.
1. FC(F)(F)c1ccc(CNc2ccc(Cc3c[nH]c4ncc(Cl)cc34)cn2)cn1
2. O=C(Nc1cnn2ccc(N3CCC[C@@H]3c3cc(F)ccc3F)nc12)N1CC[C@H](O)C1
3. Cn1cnc2c(F)c(Nc3ccc(Br)cc3Cl)c(C(=O)NOCCO)cc21
4. COC(=O)N[C@@H](C)CNc1nccc(-c2cn(C(C)C)nc2-c2cc(Cl)cc(NS(C)(=O)=O)c2F)n1
5. CCN1CCN(c2ccc(Nc3cc(N(C)C(=O)Nc4c(Cl)c(OC)cc(OC)c4Cl)ncn3)cc2)CC1
6. Cn1cnc2c(F)c(Nc3ccc(Br)cc3F)c(C(=O)NOCCO)cc21

1. 3.48%
2. 9%
3. 7%
4. 0.465%
5. 15%
6. -2.25%
